Data credit: patent US20250092017A1

STUDY TARGET: Ba/F3-FL-EGFR-L858R (Homo sapiens, UniProt P00533, L858R, cells depend on it)
Sequence (P00533 whole entry L858R): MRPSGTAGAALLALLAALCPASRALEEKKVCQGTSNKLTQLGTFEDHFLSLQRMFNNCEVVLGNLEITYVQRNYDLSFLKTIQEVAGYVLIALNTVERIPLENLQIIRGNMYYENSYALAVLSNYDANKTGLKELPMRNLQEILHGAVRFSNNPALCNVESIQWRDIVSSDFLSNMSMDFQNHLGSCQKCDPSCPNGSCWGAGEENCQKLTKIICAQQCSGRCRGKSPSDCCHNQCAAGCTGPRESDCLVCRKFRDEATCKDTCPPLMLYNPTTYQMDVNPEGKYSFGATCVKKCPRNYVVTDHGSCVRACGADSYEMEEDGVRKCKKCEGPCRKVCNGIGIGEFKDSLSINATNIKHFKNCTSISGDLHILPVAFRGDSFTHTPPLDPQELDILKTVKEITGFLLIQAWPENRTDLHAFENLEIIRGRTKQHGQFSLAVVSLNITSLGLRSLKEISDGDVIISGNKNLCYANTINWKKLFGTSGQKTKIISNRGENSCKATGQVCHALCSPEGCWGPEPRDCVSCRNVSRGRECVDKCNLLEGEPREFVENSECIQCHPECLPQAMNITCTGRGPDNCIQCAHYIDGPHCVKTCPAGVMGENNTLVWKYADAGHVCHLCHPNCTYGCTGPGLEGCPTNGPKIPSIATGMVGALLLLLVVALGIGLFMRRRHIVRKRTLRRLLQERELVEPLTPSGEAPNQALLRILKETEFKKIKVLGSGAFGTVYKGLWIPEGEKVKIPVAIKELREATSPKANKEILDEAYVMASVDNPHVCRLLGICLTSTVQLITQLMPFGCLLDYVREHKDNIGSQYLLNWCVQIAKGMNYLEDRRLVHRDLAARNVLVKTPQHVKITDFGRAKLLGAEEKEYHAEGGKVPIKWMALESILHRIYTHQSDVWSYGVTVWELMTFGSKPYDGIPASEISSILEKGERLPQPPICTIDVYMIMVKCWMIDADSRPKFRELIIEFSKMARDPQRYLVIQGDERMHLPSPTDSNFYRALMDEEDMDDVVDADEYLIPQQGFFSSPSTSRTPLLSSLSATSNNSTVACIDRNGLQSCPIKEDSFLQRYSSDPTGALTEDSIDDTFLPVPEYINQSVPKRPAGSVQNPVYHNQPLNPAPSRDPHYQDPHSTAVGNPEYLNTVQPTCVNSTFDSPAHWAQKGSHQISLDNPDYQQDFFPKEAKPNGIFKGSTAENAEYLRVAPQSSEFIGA
PROCEDURE SUMMARY: CellTiter-Glo proliferation, Ba/F3-FL-EGFR-L858R
Type: cell-based
EXPERIMENTAL SETUP: 72 hours, read-out: Ba/F3-FL-EGFR-L858R IC50/nM
Mark satisfied for GI50 under 100 nM, not satisfied if at or over.

Lab log: compare recorded GI50 with 100 nM; is it strictly lower for CCS(=O)(=O)NC1CN(c2ccc(C(C)C)c3cc(Nc4ccnc(N5CCC(O)C(F)C5)n4)ncc23)C1 (centres unmarked) ? not satisfied

API: query returns whether the compound falls strictly under 100 nM in GI50. Query: COCCS(=O)(=O)N(C)C1CN(c2ccc(C(C)C)c3cc(Nc4ccnc(N5CCC(OC)C(F)C5)n4)ncc23)C1 (centres unmarked) not satisfied

Dear colleague, could you confirm whether GI50 of CC(=O)NC1CN(c2ccc(C(C)C)c3cc(Nc4ccnc(N5CCC(O)C(F)C5)n4)ncc23)C1 (centres unmarked) falls below 100 nM? Thanks. not satisfied

Decide: GI50 of CC(C)c1ccc(N2CC(N(C)S(C)(=O)=O)C2)c2cnc(Nc3ccnc(N4CC[C@H](O)[C@H](F)C4)n3)cc12 [Compound P39b] strictly below 100 nM? satisfied

Strictly below 100 nM in GI50? CC(C)c1ccc(N2CC(NS(C)(=O)=O)C2)c2cnc(Nc3ccnc(N4CCC(O)C(C)(F)C4)n3)cc12 (centres unmarked) [Compound P45] not satisfied

I wonder whether CC(C)OCCS(=O)(=O)n1cc(-c2nccc(Nc3cc4c(C(C)C)ccc(N5C[C@H](CS(C)(=O)=O)[C@H]5C)c4cn3)n2)cn1 has GI50 below 100 nM. Can you tell? not satisfied

# check: GI50 < 100 nM for CCCS(=O)(=O)NC1CN(c2ccc(C(C)C)c3cc(Nc4ccnc(N5CCC(O)C(F)C5)n4)ncc23)C1 (centres unmarked) satisfied

Does this compound meet the criterion GI50 < 100 nM? CC(C)c1ccc(N2CC(NS(=O)(=O)c3ccoc3)C2)c2cnc(Nc3ccnc(N4CCC(O)C(F)C4)n3)cc12 (centres unmarked) not satisfied

is_below(GI50, 100 nM) for CC(C)c1ccc(N2CC(NS(C)(=O)=O)C2)c2cnc(Nc3ccnc(N4CCC(C)(O)C(F)C4)n3)cc12 (centres unmarked) ? satisfied

is_below(GI50, 100 nM) for CCn1cc(-c2nccc(Nc3cc4c(C(C)C)ccc(N5CC(CS(C)(=O)=O)C5)c4cn3)n2)cn1 ? satisfied

I wonder whether COCCS(=O)(=O)n1cc(-c2nccc(Nc3cc4c(C(C)C)ccc(N5C[C@H](CS(C)(=O)=O)[C@H]5C)c4cn3)n2)cn1 has GI50 below 100 nM. Can you tell? satisfied

Quick check: GI50 of CC(C)c1ccc(N2C[C@H](CS(C)(=O)=O)[C@H]2C)c2cnc(Nc3ccnc(-c4cnn(S(=O)(=O)CCOC5CC5)c4)n3)cc12 under 100 nM? satisfied

A record lists CC(C)c1ccc(N2CC(CS(C)(=O)=O)C2)c2cnc(Nc3ccnc(-c4cnn(S(=O)(=O)C5CCOCC5)c4)n3)cc12 . Is its GI50 below 100 nM? satisfied

Record CC(C)c1ccc(N2CC(CS(C)(=O)=O)C2)c2cnc(Nc3ccnc(-c4cnn(CC(F)(F)F)c4)n3)cc12 : is its GI50 strictly below 100 nM? satisfied

====

Assignment: determine reported log10 GI50 for the given molecules.
STUDY TARGET: Ba/F3-FL-EGFR-Del19 (E746-A750) (Homo sapiens, UniProt P00533, DEL746-750, cells depend on it)
Sequence (P00533 with tags, fused parts or gaps DEL746-750): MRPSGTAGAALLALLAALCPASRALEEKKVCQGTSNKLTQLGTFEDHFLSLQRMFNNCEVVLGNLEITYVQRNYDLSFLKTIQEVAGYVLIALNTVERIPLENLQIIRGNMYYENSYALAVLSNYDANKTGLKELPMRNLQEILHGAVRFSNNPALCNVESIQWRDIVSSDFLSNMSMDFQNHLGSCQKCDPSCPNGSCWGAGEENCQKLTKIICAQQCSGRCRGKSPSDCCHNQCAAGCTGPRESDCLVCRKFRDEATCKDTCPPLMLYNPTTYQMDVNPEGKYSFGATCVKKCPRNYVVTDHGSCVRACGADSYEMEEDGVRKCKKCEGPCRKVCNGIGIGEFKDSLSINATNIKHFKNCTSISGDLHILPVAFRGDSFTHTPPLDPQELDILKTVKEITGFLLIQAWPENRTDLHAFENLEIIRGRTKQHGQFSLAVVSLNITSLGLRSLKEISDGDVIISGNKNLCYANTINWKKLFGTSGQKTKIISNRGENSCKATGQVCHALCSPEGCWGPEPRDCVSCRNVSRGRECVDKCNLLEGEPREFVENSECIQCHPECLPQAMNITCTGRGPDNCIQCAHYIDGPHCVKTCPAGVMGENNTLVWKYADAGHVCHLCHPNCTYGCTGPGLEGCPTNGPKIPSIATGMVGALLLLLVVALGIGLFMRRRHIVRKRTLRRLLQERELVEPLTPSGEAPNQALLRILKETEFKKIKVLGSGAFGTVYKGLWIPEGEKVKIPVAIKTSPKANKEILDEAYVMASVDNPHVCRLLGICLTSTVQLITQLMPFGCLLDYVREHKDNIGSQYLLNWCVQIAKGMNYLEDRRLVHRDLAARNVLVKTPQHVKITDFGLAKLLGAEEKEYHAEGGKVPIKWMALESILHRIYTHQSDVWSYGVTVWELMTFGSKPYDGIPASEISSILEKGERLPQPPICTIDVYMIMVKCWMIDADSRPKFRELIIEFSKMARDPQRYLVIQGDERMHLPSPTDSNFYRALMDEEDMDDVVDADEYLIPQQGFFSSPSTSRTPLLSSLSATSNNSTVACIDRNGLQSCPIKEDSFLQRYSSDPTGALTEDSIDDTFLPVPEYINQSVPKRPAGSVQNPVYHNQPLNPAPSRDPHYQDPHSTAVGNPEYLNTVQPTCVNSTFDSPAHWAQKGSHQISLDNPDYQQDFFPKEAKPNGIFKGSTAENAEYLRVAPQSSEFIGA
PROCEDURE SUMMARY: CellTiter-Glo proliferation, Ba/F3-FL-EGFR-Del19
EXPERIMENTAL SETUP: read-out: Ba/F3-FL-EGFR-Del19 (E746-A750), 72 hours
Field: value | Transform: log10 | Quantity: GI50 | Unit: nM

// sample CC(C)c1ccc(N2C[C@H](N(C)S(C)(=O)=O)[C@H]2C)c2cnc(Nc3ccnc(N4CC[C@@H](O)[C@@H](F)C4)n3)cc12 [Compound P41a] , its log10 GI50 was 1.73

The value of log10 GI50 measured for the molecule CC(C)c1ccc(N2C[C@H](N(C)S(C)(=O)=O)[C@H]2C)c2cnc(Nc3ccnc(N4CC[C@H](O)[C@H](F)C4)n3)cc12 [Compound P41b] turned out to be 1.56

log10 GI50 in this record for CC(C)c1ccc(N2C[C@H](N(C)S(C)(=O)=O)[C@H]2C)c2cnc(Nc3ccnc(-c4cnn(S(=O)(=O)C5CC5)c4)n3)cc12 [Compound H23] : 0.49

The recorded log10 GI50 for entry CC(C)c1ccc(N2C[C@H](CS(C)(=O)=O)[C@H]2C)c2cnc(Nc3ccnc(-c4cnn(S(=O)(=O)C5CC5)c4)n3)cc12 [Compound H12] equals 1.18

Value of log10 GI50 reported for the molecule CC(C)c1ccc(N2C[C@H](CS(C)(=O)=O)[C@H]2C)c2cnc(Nc3ccnc(-c4cnn(S(C)(=O)=O)c4)n3)cc12 [Compound H30] is 1.18

Lab book: log10 GI50 of CC(C)c1ccc(N2CC(N(C)S(C)(=O)=O)C2)c2cnc(Nc3ccnc(N4CC[C@@H](O)[C@@H](F)C4)n3)cc12 [Compound P39a] noted as 1.61

====

STUDY TARGET: Ba/F3-TEL-EGFR-L858R-C797S (Homo sapiens, UniProt P00533, C797S/L858R, cells depend on it)
Construct: fused on or other part: N-terminal TEL (ETV6) oligomerising part fused to the EGFR intracellular/kinase part; P41212 (Transcription factor ETV6)
Sequence (P00533 whole entry C797S/L858R, the tested form may be a part): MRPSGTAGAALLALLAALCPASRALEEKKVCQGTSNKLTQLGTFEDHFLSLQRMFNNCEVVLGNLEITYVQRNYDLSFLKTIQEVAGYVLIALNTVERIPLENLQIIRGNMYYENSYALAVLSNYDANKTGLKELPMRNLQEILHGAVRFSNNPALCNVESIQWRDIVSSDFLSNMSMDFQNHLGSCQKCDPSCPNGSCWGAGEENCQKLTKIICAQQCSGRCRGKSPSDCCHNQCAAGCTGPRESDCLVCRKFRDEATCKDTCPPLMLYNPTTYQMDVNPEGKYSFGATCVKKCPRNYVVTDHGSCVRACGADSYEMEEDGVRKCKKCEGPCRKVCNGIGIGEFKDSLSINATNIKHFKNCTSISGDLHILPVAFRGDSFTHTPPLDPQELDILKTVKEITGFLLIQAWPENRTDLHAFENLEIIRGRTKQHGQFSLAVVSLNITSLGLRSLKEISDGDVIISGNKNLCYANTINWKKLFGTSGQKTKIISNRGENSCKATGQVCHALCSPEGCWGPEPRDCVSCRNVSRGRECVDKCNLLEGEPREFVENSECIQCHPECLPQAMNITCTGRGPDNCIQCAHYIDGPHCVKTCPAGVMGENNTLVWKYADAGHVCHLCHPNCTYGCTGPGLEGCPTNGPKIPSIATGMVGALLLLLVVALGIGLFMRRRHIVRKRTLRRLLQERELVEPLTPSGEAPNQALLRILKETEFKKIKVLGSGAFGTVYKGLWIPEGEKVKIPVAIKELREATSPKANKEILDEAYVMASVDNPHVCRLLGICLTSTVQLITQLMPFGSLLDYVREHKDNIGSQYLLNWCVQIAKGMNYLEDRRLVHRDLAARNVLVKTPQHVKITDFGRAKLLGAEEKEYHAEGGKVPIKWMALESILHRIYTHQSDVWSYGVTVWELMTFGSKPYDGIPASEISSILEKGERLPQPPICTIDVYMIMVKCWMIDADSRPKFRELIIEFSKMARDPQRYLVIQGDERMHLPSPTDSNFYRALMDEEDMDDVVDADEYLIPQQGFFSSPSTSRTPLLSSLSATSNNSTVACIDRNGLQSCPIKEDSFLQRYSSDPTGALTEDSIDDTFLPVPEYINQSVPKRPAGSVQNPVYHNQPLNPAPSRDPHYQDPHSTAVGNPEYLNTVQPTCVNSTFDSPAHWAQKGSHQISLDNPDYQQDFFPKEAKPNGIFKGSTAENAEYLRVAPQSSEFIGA
PROCEDURE SUMMARY: CellTiter-Glo proliferation, Ba/F3-TEL-EGFR-L858R-C797S
Format: cell-based
EXPERIMENTAL SETUP: 72 hours, read-out: Ba/F3-TEL-EGFR-L858R-C797S IC50/nM
Could you please mark true (1) for values of GI50 below 30 nM and false (0) for values at or above it?

Please indicate whether the reported GI50 of CC(C)c1ccc(N2CC(NS(=O)(=O)N(C)C)C2)c2cnc(Nc3ccnc(N4CCC(O)C(F)C4)n3)cc12 (centres unmarked) is strictly below 30 nM. false (0)

Confirm or reject: GI50 of COC1CCN(c2nccc(Nc3cc4c(C(C)C)ccc(N5CC(N(C)S(C)(=O)=O)C5)c4cn3)n2)CC1F (centres unmarked) lies strictly below 30 nM true (1)

Dear reviewer, please state whether COCCS(=O)(=O)N(C)C1CN(c2ccc(C(C)C)c3cc(Nc4ccnc(N5CCC(OC)C(F)C5)n4)ncc23)C1 (centres unmarked) has GI50 strictly beneath 30 nM. false (0)

Regarding CC(C)c1ccc(N2CC(N(C)S(C)(=O)=O)C2)c2cnc(Nc3ccnc(-c4cnn(S(=O)(=O)C5CC5)c4)n3)cc12 , kindly confirm whether its GI50 is beneath 30 nM. true (1)

# check: GI50 < 30 nM for CC(C)c1ccc(N2CC(CS(C)(=O)=O)C2)c2cnc(Nc3ccnc(-c4cnn(S(=O)(=O)CC5CC5)c4)n3)cc12 true (1)

Does CC(C)c1ccc(N2CC3(CC(S(C)(=O)=O)C3)C2)c2cnc(Nc3ccnc(-c4cnn(S(=O)(=O)C5CC5)c4)n3)cc12 have GI50 strictly under 30 nM? false (0)

# check: GI50 < 30 nM for CC(C)c1ccc(N2CC(CS(C)(=O)=O)C2)c2cnc(Nc3ccnc(-c4cnn(S(=O)(=O)N(C)C)c4)n3)cc12 false (0)

# check: GI50 < 30 nM for CC(C)c1ccc(N2C[C@H](N(C)S(C)(=O)=O)[C@H]2C)c2cnc(Nc3ccnc(N4CC[C@H](O)[C@H](F)C4)n3)cc12 [Compound P41b] true (1)

Does the reported GI50 of CC(C)c1ccc(N2C[C@H](CS(C)(=O)=O)[C@H]2C)c2cnc(Nc3ccnc(-c4cnn(S(=O)(=O)N(C)C)c4)n3)cc12 stay below 30 nM? true (1)

Given the entry CCS(=O)(=O)N(C)[C@H]1CN(c2ccc(C(C)C)c3cc(Nc4ccnc(N5CCC(OC)C(F)C5)n4)ncc23)[C@@H]1C (some centres unmarked) , would its reported GI50 be below 30 nM? true (1)

For this molecule, is GI50 lower than 30 nM? CC(C)c1ccc(N2CC(CS(C)(=O)=O)C2)c2cnc(Nc3ccnc(-c4cnn(CC(F)(F)F)c4)n3)cc12 false (0)

Dear reviewer, please state whether CC(C)c1ccc(N2CC(CS(C)(=O)=O)C2)c2cnc(Nc3ccnc(N4CCC(O)C(F)C4)n3)cc12 (centres unmarked) [Control A, reference compound] has GI50 strictly beneath 30 nM. false (0)

Input COC1CCN(c2nccc(Nc3cc4c(C(C)C)ccc(N5CC(N(C)S(=O)(=O)C(F)(F)F)C5)c4cn3)n2)CC1F (centres unmarked) ; condition: GI50 strictly below 30 nM. Does it hold? false (0)

Would you kindly verify if GI50 of CCCS(=O)(=O)n1cc(-c2nccc(Nc3cc4c(C(C)C)ccc(N5CC(CS(C)(=O)=O)C5)c4cn3)n2)cn1 is strictly less than 30 nM? false (0)

Please state whether GI50 is below 30 nM for CC(C)c1ccc(N2CC(CC(N)=O)C2)c2cnc(Nc3ccnc(-c4cnn(S(=O)(=O)C5CC5)c4)n3)cc12 false (0)

Just wondering, is GI50 of CC(C)c1ccc(N2CC(CC(N)=O)C2)c2cnc(Nc3ccnc(N4CCC(O)C(F)C4)n3)cc12 (centres unmarked) below 30 nM? false (0)

Hi there! Is GI50 for CC(C)c1ccc(N2CC(CS(C)(=O)=O)C2)c2cnc(Nc3ccnc(-c4cnn(CC#N)c4)n3)cc12 below 30 nM, do you know? false (0)

Please state whether GI50 is below 30 nM for CC(C)c1ccc(N2CC(CS(C)(=O)=O)C2)c2cnc(Nc3ccnc(-c4cn[nH]c4)n3)cc12 false (0)

Is the reported GI50 for CC(C)c1ccc(N2CC(CS(C)(=O)=O)C2)c2cnc(Nc3ccnc(-c4cnn(S(=O)(=O)C5(C)CC5)c4)n3)cc12 strictly below 30 nM? false (0)

Below 30 nM on GI50? Entry CC(C)c1ccc(N2CC(NS(C)(=O)=O)C2)c2cnc(Nc3ccnc(N4CCC(O)C(C)(F)C4)n3)cc12 (centres unmarked) [Compound P46] false (0)

Given the entry CC(C)c1ccc(N2CC(N3CCCS3(=O)=O)C2)c2cnc(Nc3ccnc(N4CCC(O)C(F)C4)n3)cc12 (centres unmarked) , would its reported GI50 be below 30 nM? false (0)

Is the reported GI50 for CC(C)c1ccc(N2CC(NS(C)(=O)=O)C2)c2cnc(Nc3ccnc(N4CCC(O)C(F)(F)C4)n3)cc12 (centres unmarked) strictly below 30 nM? false (0)

Consider CCN(C1CN(c2ccc(C(C)C)c3cc(Nc4ccnc(N5CCC(OC)C(F)C5)n4)ncc23)C1)S(C)(=O)=O (centres unmarked) . Does its GI50 lie strictly below 30 nM? true (1)

# check: GI50 < 30 nM for CC(C)c1ccc(N2C[C@H](NS(C)(=O)=O)[C@H]2C)c2cnc(Nc3ccnc(N4CCC(O)C(F)C4)n3)cc12 (some centres unmarked) true (1)

Would you kindly verify if GI50 of CC(C)c1ccc(N2CC(N(C)S(C)(=O)=O)C2)c2cnc(Nc3ccnc(N4CC[C@H](O)[C@H](F)C4)n3)cc12 [Compound P39b] is strictly less than 30 nM? true (1)

Is it true that GI50 reported for [2H]C([2H])([2H])N([C@H]1CN(c2ccc(C(C)C)c3cc(Nc4ccnc(N5CCC(OC)C(F)C5)n4)ncc23)[C@@H]1C)S(C)(=O)=O (some centres unmarked) is less than 30 nM? true (1)
